Biological target: Ybr033w (UniProt P38073)
Sequence: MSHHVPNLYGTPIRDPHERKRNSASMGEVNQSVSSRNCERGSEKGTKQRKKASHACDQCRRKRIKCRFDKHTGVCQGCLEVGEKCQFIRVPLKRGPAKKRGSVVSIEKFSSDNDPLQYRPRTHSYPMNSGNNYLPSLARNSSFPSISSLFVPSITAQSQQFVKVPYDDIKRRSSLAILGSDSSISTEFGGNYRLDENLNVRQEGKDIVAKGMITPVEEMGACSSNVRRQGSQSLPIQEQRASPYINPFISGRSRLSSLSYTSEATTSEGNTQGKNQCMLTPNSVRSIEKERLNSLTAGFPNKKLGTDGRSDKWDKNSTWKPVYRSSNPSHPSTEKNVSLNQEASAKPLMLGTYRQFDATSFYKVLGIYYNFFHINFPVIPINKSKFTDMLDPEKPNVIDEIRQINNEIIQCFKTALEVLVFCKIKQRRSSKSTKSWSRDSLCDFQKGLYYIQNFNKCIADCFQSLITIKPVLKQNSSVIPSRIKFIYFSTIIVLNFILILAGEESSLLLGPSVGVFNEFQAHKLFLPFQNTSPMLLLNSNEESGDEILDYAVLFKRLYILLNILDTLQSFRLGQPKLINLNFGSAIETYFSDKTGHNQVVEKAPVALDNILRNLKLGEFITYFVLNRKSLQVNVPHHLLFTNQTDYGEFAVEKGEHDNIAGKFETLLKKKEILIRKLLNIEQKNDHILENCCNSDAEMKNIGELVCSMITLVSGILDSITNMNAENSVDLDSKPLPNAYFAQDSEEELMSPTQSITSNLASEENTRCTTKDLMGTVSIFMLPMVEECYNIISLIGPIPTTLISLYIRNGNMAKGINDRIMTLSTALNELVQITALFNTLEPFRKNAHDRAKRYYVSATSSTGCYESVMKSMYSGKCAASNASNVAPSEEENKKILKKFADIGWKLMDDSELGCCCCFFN
Experiment: PBM E-score (8-mer binding enrichment) (E-score (-0.5 to 0.5)); higher = stronger / more preferred TF binding
Conditions: protein concentration: 200 nM; construct: GST-full length
In all, about 33,000 sequences were measured (“E-score (-0.5 to 0.5)”: median about -0.012, highest 2% from about 0.29 on). The sample holds the highest values, similar sequences and a random draw of the others, so the mix is not that of the screen.
A collection of sequences and their measured PBM E-score

sequence.code: ATCTTTAA
test.target: Ybr033w (UniProt P38073)
PBM E-score: 0.299

sequence.code: CGTATAGC
test.target: Ybr033w (UniProt P38073)
PBM E-score: -0.0573

sequence.code: AGTAGTTG
test.target: Ybr033w (UniProt P38073)
PBM E-score: 0.176

sequence.code: ATCTTTAC
test.target: Ybr033w (UniProt P38073)
PBM E-score: 0.203

sequence.code: ATTTAATG
test.target: Ybr033w (UniProt P38073)
PBM E-score: 0.244

sequence.code: TTAAGGAA
test.target: Ybr033w (UniProt P38073)
PBM E-score: 0.218

sequence.code: ATTTAGTC
test.target: Ybr033w (UniProt P38073)
PBM E-score: 0.0709

sequence.code: CATATACC
test.target: Ybr033w (UniProt P38073)
PBM E-score: -0.165

sequence.code: GCTTATGA
test.target: Ybr033w (UniProt P38073)
PBM E-score: -0.0277

sequence.code: TATATACA
test.target: Ybr033w (UniProt P38073)
PBM E-score: 0.24

sequence.code: AGTCCAGC
test.target: Ybr033w (UniProt P38073)
PBM E-score: -0.114

sequence.code: GATATACA
test.target: Ybr033w (UniProt P38073)
PBM E-score: 0.144

sequence.code: CATATGCA
test.target: Ybr033w (UniProt P38073)
PBM E-score: 0.0648

sequence.code: AGTAGTTC
test.target: Ybr033w (UniProt P38073)
PBM E-score: 0.307

sequence.code: ATATTTTC
test.target: Ybr033w (UniProt P38073)
PBM E-score: 0.342

sequence.code: ATTCGAAA
test.target: Ybr033w (UniProt P38073)
PBM E-score: 0.12

sequence.code: CTGGTGCA
test.target: Ybr033w (UniProt P38073)
PBM E-score: -0.31

sequence.code: AATATACA
test.target: Ybr033w (UniProt P38073)
PBM E-score: 0.316

sequence.code: AATAGTTC
test.target: Ybr033w (UniProt P38073)
PBM E-score: 0.294

sequence.code: ATCTTTTA
test.target: Ybr033w (UniProt P38073)
PBM E-score: 0.236

sequence.code: CTATTTCC
test.target: Ybr033w (UniProt P38073)
PBM E-score: 0.276

sequence.code: AATAGTTG
test.target: Ybr033w (UniProt P38073)
PBM E-score: 0.207

====

Target: Ybr033w (UniProt P38073)
Sequence: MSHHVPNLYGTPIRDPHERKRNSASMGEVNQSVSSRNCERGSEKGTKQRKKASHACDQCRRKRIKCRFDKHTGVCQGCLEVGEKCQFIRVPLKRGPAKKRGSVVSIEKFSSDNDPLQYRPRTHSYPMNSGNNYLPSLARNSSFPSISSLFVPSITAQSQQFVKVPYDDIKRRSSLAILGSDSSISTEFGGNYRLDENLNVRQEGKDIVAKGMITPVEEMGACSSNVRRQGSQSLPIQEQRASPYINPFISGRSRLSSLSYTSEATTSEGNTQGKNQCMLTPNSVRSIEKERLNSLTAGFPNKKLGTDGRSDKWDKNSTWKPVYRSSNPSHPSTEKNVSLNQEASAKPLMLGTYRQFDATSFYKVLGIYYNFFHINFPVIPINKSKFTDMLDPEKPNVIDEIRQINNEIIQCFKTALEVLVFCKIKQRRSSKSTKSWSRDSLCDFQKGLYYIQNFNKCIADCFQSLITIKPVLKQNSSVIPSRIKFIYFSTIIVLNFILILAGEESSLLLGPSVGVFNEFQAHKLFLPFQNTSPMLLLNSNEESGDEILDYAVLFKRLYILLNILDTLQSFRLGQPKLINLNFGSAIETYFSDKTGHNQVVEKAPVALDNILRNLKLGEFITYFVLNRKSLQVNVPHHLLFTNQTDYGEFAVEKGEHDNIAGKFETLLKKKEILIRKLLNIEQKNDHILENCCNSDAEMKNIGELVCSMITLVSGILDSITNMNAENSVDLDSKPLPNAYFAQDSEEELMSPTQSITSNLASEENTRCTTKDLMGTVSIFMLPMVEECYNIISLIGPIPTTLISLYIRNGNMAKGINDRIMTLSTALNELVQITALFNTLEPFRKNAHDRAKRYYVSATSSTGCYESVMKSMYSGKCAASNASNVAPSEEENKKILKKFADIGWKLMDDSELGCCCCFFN
Test: PBM E-score (8-mer binding enrichment) (E-score (-0.5 to 0.5)); higher = stronger / more preferred TF binding
Details: protein concentration: 200 nM; construct: GST-full length
In all, about 33,000 sequences were measured (“E-score (-0.5 to 0.5)”: median about -0.012, highest 2% from about 0.29 on). The entries come from a sample that favours the highest values as a whole.
Categories are defined by ranges of PBM E-score, namely lower: < 0.003; middle: ≥ 0.003 and < 0.2; upper: ≥ 0.2

sequence.code: ACCTATGC
test.target: Ybr033w (UniProt P38073)
group: lower
//
sequence.code: GGCTCCAC
test.target: Ybr033w (UniProt P38073)
group: lower
//
sequence.code: AGTTGGAC
test.target: Ybr033w (UniProt P38073)
group: lower
//
sequence.code: TCACTACA
test.target: Ybr033w (UniProt P38073)
group: upper
//
sequence.code: ACCTGGGC
test.target: Ybr033w (UniProt P38073)
group: lower
//
sequence.code: AATCAATT
test.target: Ybr033w (UniProt P38073)
group: upper
//
sequence.code: TATCAATA
test.target: Ybr033w (UniProt P38073)
group: upper
//
sequence.code: TACCAATA
test.target: Ybr033w (UniProt P38073)
group: middle
//
sequence.code: GCATACTA
test.target: Ybr033w (UniProt P38073)
group: middle
//
sequence.code: GATCAAAA
test.target: Ybr033w (UniProt P38073)
group: upper
//
sequence.code: GATCAATA
test.target: Ybr033w (UniProt P38073)
group: upper
//
sequence.code: AGTAATAC
test.target: Ybr033w (UniProt P38073)
group: upper
//
sequence.code: AGCAGGAA
test.target: Ybr033w (UniProt P38073)
group: middle
//
sequence.code: TCTAATAA
test.target: Ybr033w (UniProt P38073)
group: upper
//
sequence.code: CAAGAGGC
test.target: Ybr033w (UniProt P38073)
group: lower
//
sequence.code: ACCCTACT
test.target: Ybr033w (UniProt P38073)
group: lower
//
sequence.code: AATCAAAA
test.target: Ybr033w (UniProt P38073)
group: upper
//
sequence.code: CTCCACGA
test.target: Ybr033w (UniProt P38073)
group: lower
//
sequence.code: CTAGAGCC
test.target: Ybr033w (UniProt P38073)
group: lower
//
sequence.code: AATCAATC
test.target: Ybr033w (UniProt P38073)
group: middle
//
sequence.code: CACAATTC
test.target: Ybr033w (UniProt P38073)
group: middle
